Numbers sourced from ChEMBL document CHEMBL1201862.

Test system: UACC-257
METHOD NOTES: NCI tumour cell line growth inhibition, 48 h
Active and inactive are the calls of the source. Rule as the data show it: active = GI50 up to about 1.1 µM and inactive = higher.
Please respond with reported GI50 for every item in the list.

I have 2 molecules here; please give me GI50 for each one.
1. C[C@H](C1CC(C)(O)C(C)(O)C(O)O1)[C@H]1CC[C@H]2[C@@H]3[C@@H]4O[C@@H]4[C@@]4(O)CC=CC(=O)[C@]4(C)[C@H]3CC[C@]12C (stereo not given in full)
2. COc1ccc(/C(C)=N/NC(=O)c2ccncc2)cc1OC

1: > 50 µM (inactive); 2: > 10 µM (inactive)

For every listed record, write down its GI50.
1. C=C1CC(O)C2C(=C)C(=O)OC2C2C(C)C(=O)CC12 (stereo not given)
2. Nc1ncnc2c1ncc(=O)n2C1CC(O)C(CO)O1 (stereo not given)

["12.6 µM (inactive)", "> 100 µM (inactive)"]

# lookup: c1ccc2c(c1)NC1(N3CCCCC3)CCCCC21 (stereo not given) on UACC-257, GI50 = 47.3 µM (inactive)
